molecular target: Mab Select SuRe Ligand; experiment: SPR (Biacore T200), SuRe ligand on CM5 chip, antibody 5 ug/mL
Param label: returns y when SuRe binding (RU) < 0.8 RU, returns n otherwise, including exact equality.

The following binders have reported results that may help.
binder	classification
TR01H095-E2702GsKsc/L0011-k0 (antibody, human IgG4 S228P, kappa, N297A, V domains shown) VH: QVQLVESGGGLVQPGRSLRLSCAASGFTFSNAWMHWVRQAPGKGLEWVAQIKDKSQNYAFYYAESVKGRFTISRDDSKNSLYLQMNSLKTEDTAVYYCRYVHYAAGYGVDAWGQGTTVTVSS VL: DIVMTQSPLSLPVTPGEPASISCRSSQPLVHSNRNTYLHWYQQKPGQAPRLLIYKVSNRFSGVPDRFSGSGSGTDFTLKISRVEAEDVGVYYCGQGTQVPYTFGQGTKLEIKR	y
TR01H113-E2702GsKsc/L0011-k0 (antibody, human IgG4 S228P, kappa, N297A, V domains shown) VH: QVQLVESGGGVVQPGGSLRLSCAASGFTFSNAWMHWVRQAPGKGLEWVAQIKDKSQNYATYVAESVKGRFTISRADSKNSIYLQMNSLKTEDTAVYYCRYVHYAAGYGVDIWGQGTTVTVSS VL: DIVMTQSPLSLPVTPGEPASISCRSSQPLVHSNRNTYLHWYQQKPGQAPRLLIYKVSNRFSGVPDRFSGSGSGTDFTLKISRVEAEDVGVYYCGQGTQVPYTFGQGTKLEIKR	n
TR01H102-E2702GsKsc/L0011-k0 (antibody, human IgG4 S228P, kappa, N297A, V domains shown) VH: QVQLVESGGGLVQPGRSLRLSCAASGFTFSNAWMHWVRQAPGKGLEWVAQIKDKSQNYATYFAESVKGRFTISRDDSKNSLYLQMNSLKTEDTAVYYCRYVHYAAGYGVDAWGQGTTVTVSS VL: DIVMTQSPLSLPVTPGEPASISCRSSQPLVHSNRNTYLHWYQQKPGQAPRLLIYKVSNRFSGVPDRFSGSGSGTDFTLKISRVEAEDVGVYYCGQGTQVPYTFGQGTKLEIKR	y

Given TR01H096-E2702GsKsc/L0011-k0 (antibody, human IgG4 S228P, kappa, N297A, V domains shown) VH: QVQLVESGGGLVQPGRSLRLSCAASGFTFSNAWMHWVRQAPGKGLEWVAQIKDKSQNYAGYYAESVKGRFTISRDDSKNSLYLQMNSLKTEDTAVYYCRYVHYAAGYGVDAWGQGTTVTVSS VL: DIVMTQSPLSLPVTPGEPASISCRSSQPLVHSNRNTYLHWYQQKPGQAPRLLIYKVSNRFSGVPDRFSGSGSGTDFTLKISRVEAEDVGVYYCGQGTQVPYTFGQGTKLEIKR , is recorded SuRe binding (RU) strictly lower than 0.8 RU?
n
